Listing of entries alongside the reported MIC.
# Test system: Staphylococcus aureus
# Test protocol: In vitro inhibition of growth of methicillin-resistant Staphylococcus aureus MRSA spain 356 (clinical isolates)
# Assay type: functional
Field format: number, assumed µg/mL, no unit text.

NCCSCc1cnccc1SC1=C(C(=O)O)N2C(=O)[C@@H](NC(=O)/C(=N\O)c3cccc(N)n3)[C@H]2SC1 = 2
NCCSc1nccnc1SC1=C(C(=O)O)N2C(=O)[C@@H](NC(=O)/C(=N\O)c3cccc(N)n3)[C@H]2SC1 = 2

Asked: GET /values?readout=MIC&item= NCCSc1nsc(SC2=C(C(=O)O)N3C(=O)[C@@H](NC(=O)/C(=N\O)c4cccc(N)n4)[C@H]3SC2)n1
Given back: 2

Asked: GET /values?readout=MIC&item= NCCSCc1csc(SC2=C(C(=O)O)N3C(=O)[C@@H](NC(=O)/C(=N\O)c4cccc(N)n4)[C@H]3SC2)n1
Given back: 2

Asked: GET /values?readout=MIC&item= NCCCSc1nsc(SC2=C(C(=O)O)N3C(=O)[C@@H](NC(=O)/C(=N\O)c4cccc(N)n4)[C@H]3SC2)n1
Given back: 2

Asked: GET /values?readout=MIC&item= NCCSCc1ncsc1SC1=C(C(=O)O)N2C(=O)[C@@H](NC(=O)/C(=N\O)c3cccc(N)n3)[C@H]2SC1
Given back: 2

Asked: GET /values?readout=MIC&item= Cc1nc(CSCCN)c(SC2=C(C(=O)O)N3C(=O)[C@@H](NC(=O)/C(=N\O)c4cccc(N)n4)[C@H]3SC2)s1
Given back: 2
